- Procedure Details: Plasma level of free and total carvacrol after oral oregano extract 4 (LC/MS/MS)
- Type: in vivo, rat
- Measurement Parameters: male, rat, plasma, po, 800 mg/kg, Free Carvacrol (ng/mL) in plasma, male rats, 24 h after single 800 mg/kg oregano extract 4 by oral gavage in corn oil; individual animals
Assay Endpoint: concentration at 24 h

- Molecule: "Cc1ccc(C(C)C)cc1O [Carvacrol]"
  Value Measured: "68.1 ng/mL"

====

Quick list: IC50 per entry.
- Measured Target: human serotonin re-uptake transporter (hSERT) (Homo sapiens, UniProt P31645)
- Sequence (P31645 whole entry): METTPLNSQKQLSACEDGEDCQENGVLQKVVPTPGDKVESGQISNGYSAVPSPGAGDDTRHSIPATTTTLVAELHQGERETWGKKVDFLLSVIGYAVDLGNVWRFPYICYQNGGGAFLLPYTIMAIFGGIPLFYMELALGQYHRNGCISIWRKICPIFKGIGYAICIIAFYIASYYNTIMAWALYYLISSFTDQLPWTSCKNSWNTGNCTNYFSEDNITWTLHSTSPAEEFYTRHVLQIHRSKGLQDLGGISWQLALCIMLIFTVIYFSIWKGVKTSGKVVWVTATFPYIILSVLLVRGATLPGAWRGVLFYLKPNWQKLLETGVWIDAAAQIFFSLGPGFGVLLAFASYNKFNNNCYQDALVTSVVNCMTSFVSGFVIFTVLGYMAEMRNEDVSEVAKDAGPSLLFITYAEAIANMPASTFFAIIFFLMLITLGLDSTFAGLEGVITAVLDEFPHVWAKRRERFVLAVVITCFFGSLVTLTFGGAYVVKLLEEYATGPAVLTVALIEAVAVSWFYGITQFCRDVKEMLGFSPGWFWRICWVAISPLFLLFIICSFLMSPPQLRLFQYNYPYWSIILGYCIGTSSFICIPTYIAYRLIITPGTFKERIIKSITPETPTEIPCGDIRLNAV
- Procedure Details: Serotonin uptake inhibition in HEK-293 cells expressing hSERT
- Measurement Parameters: single compounds; transfected HEK-293 cells, 20 nM 3H-serotonin, 30 minutes; read-out: IC50 for tritiated serotonin uptake

- Smiles Str: "Cc1ccc(C(C)C)c(O)c1"
  Measured Target: "human serotonin re-uptake transporter (hSERT) (Homo sapiens, UniProt P31645)"
  IC50 / µM: 5
- Smiles Str: "Cc1cc(O)c(C(C)C)cc1O"
  Measured Target: "human serotonin re-uptake transporter (hSERT) (Homo sapiens, UniProt P31645)"
  IC50 / µM: 26.6

====

- Procedure Details: Plasma level of free and total carvacrol after oral oregano extract 4 (LC/MS/MS)
- Assay type: in vivo, rat
- Measurement Parameters: female, rat, plasma, po, 800 mg/kg, Free Carvacrol (ng/mL) in plasma, female rats, 3 h after single 800 mg/kg oregano extract 4 by oral gavage in corn oil; individual animals

- Smiles Str: "Cc1ccc(C(C)C)cc1O"
  concentration at 3 h (ng/mL): 128

====

- Procedure Details: Plasma level of free and total carvacrol after oral oregano extract 4 (LC/MS/MS)
- Format: in vivo, rat
- Measurement Parameters: male, rat, plasma, po, 800 mg/kg, Free Carvacrol (ng/mL) in plasma, male rats, 1 h after single 800 mg/kg oregano extract 4 by oral gavage in corn oil; individual animals

- Smiles Str: "Cc1ccc(C(C)C)cc1O"
  concentration at 1 h / ng/mL: 1790

====

- Procedure Details: Plasma level of free and total carvacrol after oral oregano extract 4 (LC/MS/MS)
- Format: in vivo, rat
- Measurement Parameters: male, rat, plasma, po, 800 mg/kg, Free Carvacrol (ng/mL) in plasma, male rats, 8 h after single 800 mg/kg oregano extract 4 by oral gavage in corn oil; individual animals

- Smiles Str: "Cc1ccc(C(C)C)cc1O"
  concentration at 8 h, ng/mL: 185

====

- Measured Target: human dopamine transporter (hDAT) (Homo sapiens)
- Sequence (Q01959 whole entry): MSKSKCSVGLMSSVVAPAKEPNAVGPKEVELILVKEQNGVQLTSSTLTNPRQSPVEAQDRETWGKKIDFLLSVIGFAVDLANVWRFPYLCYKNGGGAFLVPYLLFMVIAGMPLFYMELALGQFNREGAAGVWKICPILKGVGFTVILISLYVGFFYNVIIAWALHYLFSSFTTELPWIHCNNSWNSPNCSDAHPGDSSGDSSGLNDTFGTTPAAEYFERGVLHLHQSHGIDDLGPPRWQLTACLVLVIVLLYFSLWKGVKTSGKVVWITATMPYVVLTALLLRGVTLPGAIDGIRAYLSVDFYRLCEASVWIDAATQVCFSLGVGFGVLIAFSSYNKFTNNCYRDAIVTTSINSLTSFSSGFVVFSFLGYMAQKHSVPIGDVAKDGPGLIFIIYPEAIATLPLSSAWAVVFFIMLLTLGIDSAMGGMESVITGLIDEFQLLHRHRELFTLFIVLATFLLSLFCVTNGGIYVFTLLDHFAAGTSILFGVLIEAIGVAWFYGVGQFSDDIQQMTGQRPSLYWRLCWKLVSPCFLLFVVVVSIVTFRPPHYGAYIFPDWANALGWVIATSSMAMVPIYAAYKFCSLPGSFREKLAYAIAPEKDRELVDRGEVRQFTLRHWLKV
- Measurement Parameters: transfected CHO-Ki cells, 50 nM [3H]Dopamine; n = 2; read-out: IC50 for inhibition of dopamine reuptake
pIC50: −log10 of the molar value.

- Molecule: "Cc1cc(O)c(C(C)C)cc1O [Thymoquinol]"
  Measured Target: "human dopamine transporter (hDAT) (Homo sapiens)"
  pIC50: 4.18
